System: 7G8
Assay: qHTS profiling for inhibitors of Plasmodium falciparum proliferation (AID 504749); note: nearly all actives have a fitted effect of over 60% in size
Conditions: P. falciparum in erythrocytes, SYBR Green DNA, 72 h; series mostly up to 28.7 µM
Results filed as inconclusive are left out. Activity calls are given as the source filed them. Calls come from the whole dose curve; as a rule, active = well fitted inhibition curve with a large enough effect; inconclusive = small, poorly fitted or top-dose-only effect; inactive = flat fitted curve, though single readings scatter.
Choose the fitting class; nothing outside y = active, n = inactive is accepted.

Completed entries (count: 3):
# molecule, target-desc, assigned-category
measured = [
    ("CC(=O)O[C@]1(C(C)=O)CC[C@H]2[C@@H]3C=C(Cl)C4=CC(=O)CC[C@]4(C)[C@H]3CC[C@@]21C", "7G8", "y"),
    ("CC(=O)NC(=O)c1ccccc1O", "7G8", "n"),
    ("CNCCCCOc1ccccc1Cc1ccccc1", "7G8", "y"),
]

Query: Hey, what did the test say about CCc1ccc(C(=O)C(C)CN2CCCCC2)cc1 (centres undefined) ?
Reply: n

Query: Tell me the assay call for Cc1ccc2c(Br)cc(Br)c(O)c2n1 please.
Reply: y

Query: I would be grateful if you could indicate the recorded call for O=C(Nc1cccc(C2=NCCN2)c1)Nc1cccc(C2=NCCN2)c1 .
Reply: y

Query: # fetch the recorded call for CC(=O)Nc1ccc(OCC(O)CNC(C)C)cc1 (centres undefined) here
Reply: n

Query: What did this assay record as the result for CN(CCCN1c2ccccc2CCc2ccccc21)CC(=O)c1ccc(Cl)cc1 ?
Reply: y

Query: Name the outcome recorded for O=C(c1ccc(F)cc1)C1CCN(CCn2c(=S)[nH]c3ccccc3c2=O)CC1 in the assay.
Reply: y

Query: Dear all, I need the recorded test outcome for CN1CCN(CCC(=O)N2c3ccccc3Sc3ccc(C(F)(F)F)cc32)CC1 , thank you.
Reply: y

Query: I'd appreciate the recorded outcome for O=C1C(CCS(=O)c2ccccc2)C(=O)N(c2ccccc2)N1c1ccccc1 (centres undefined) from this test.
Reply: n

Query: Call for entry CCCCCCCCCCCCSCCOCCO :
Reply: n

Query: Outcome logged for NCc1ccccc1Sc1ccccc1CO in this assay:
Reply: y

This collection of values is drawn from PubChem BioAssay (NCATS).
